Each recorded value in this set is attributed to patent US20250270301A1.

Fold improvement (KD, to pVH/pVL) for assorted binders
Target: T1, full length recombinant human 2N4R tau (human, UniProt P10636 1-758)
T1 construct: bought from rPeptide; pHrodo Red maleimide-labelled where it stands in uptake assays; also called tau1-441; full length tau
T1 sequence (P10636 other isoform, or with tags, fused parts or gaps limits assumed): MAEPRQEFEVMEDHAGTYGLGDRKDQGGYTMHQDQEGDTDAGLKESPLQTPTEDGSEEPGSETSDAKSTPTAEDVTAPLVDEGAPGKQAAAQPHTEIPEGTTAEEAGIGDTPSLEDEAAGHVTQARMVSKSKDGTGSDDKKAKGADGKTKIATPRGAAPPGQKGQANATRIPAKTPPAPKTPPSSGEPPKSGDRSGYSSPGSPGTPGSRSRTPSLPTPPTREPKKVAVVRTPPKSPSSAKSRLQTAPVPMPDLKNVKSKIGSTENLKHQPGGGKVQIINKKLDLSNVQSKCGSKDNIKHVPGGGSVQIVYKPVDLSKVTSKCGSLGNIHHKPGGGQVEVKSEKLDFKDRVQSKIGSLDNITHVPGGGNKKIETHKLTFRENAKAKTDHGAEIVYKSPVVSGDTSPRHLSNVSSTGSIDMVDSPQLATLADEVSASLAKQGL
Test: SPR MCK, IgG on Protein A, tau in flow at 100 µL/min
Reply briefly: the number, and no unit.

#44_VH4VK4 humanised hIgG1 (antibody, V domains shown, also called VH4Vκ4; pVH/pVL) VH: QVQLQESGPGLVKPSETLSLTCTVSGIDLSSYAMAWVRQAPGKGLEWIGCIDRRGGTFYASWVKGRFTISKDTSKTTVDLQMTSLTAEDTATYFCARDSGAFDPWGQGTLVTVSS VL: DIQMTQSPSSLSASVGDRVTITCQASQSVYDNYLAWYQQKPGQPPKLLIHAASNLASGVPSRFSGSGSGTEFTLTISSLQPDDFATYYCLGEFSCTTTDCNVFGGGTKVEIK : 1

Then this binder:
Challenge: Return Fold improvement (KD, to pVH/pVL) (reported value) for this binder: #44_VH4VK4_H01/pVL (antibody, V domains shown, also called Clone VH4_H01; #44_VH4_H01) VH: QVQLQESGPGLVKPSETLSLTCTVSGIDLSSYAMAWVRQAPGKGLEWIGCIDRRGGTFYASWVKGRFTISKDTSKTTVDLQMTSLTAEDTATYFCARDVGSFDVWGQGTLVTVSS VL: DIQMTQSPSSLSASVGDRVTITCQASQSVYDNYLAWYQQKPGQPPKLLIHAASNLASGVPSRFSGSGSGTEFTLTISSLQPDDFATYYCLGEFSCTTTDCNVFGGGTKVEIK
Response given: 1.9
